Source: patent US20070093443A1

Below, each entry is listed with its recorded % Unbound by a2M.
Molecular target: T1, alpha-2 macroglobulin (in human plasma) (human, UniProt P01023 24-1474)
T1 construct: Not purified: the endogenous protein of the plasma
T1 sequence (looked up): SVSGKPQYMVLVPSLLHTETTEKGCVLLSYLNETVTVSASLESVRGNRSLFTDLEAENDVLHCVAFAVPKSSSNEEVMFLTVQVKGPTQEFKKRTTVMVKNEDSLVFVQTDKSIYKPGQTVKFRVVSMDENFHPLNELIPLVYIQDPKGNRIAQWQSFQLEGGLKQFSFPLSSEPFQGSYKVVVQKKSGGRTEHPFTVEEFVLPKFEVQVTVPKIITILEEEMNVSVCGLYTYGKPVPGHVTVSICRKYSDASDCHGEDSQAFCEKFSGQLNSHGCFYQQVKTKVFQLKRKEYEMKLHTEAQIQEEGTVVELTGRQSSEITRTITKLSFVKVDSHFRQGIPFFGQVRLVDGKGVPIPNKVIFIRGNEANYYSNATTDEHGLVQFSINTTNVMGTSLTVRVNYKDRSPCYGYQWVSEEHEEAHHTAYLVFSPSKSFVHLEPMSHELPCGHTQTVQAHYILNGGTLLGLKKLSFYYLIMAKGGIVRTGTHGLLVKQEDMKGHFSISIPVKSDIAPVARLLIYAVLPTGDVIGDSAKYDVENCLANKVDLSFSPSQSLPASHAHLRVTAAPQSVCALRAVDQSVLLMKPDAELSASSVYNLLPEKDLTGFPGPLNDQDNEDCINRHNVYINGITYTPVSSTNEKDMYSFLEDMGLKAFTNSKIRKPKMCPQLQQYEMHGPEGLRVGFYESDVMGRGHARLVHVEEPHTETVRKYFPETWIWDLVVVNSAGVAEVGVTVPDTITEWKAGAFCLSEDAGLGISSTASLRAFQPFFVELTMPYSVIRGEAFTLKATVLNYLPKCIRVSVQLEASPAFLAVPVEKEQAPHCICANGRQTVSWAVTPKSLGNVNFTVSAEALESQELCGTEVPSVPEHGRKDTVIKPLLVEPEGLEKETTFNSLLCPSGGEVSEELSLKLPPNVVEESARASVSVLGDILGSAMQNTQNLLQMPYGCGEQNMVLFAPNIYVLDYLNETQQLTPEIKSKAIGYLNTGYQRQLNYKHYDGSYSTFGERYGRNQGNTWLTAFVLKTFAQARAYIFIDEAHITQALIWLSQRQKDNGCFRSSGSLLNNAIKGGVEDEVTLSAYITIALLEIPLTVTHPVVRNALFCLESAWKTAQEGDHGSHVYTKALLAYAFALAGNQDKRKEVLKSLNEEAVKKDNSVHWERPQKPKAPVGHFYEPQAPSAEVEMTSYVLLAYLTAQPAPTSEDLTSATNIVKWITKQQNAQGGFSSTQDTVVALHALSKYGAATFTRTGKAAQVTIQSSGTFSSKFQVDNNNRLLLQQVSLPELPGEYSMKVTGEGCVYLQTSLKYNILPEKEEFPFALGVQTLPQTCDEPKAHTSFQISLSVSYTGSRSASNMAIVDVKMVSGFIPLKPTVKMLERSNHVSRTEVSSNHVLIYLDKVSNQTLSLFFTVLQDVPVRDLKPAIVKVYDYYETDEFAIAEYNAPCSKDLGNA
Assay: Ac-RQAR-AMC activity of protease after 5 min in human citrated plasma, with and without M84R ecotin
metric.name: % Unbound by a2M

modified MT-SP1 CB489 (I41T/Y146E/G151L/Q175D/K224L) protease domain (enzyme) VVGGTDADEGEWPWQVSLHALGQGHTCGASLISPNWLVSAAHCYIDDRGFRYSDPTQWTAFLGLHDQSQRSAPGVQERRLKRIISHPFFNDFTFDYDIALLELEKPAEYSSMVRPICLPDASHVFPAGKAIWVTGWGHTQEGGTLALILQKGEIRVINQTTCENLLPQDITPRMMCVGFLSGGVDSCQGDSGGPLSSVEADGRIFQAGVVSWGDGCAQRNLPGVYTRLPLFRDWIKENTGV ... 58%
modified MT-SP1 CB482 (I41T/Y146D/G151L/Q175D/K224R) protease domain (enzyme) VVGGTDADEGEWPWQVSLHALGQGHTCGASLISPNWLVSAAHCYIDDRGFRYSDPTQWTAFLGLHDQSQRSAPGVQERRLKRIISHPFFNDFTFDYDIALLELEKPAEYSSMVRPICLPDASHVFPAGKAIWVTGWGHTQDGGTLALILQKGEIRVINQTTCENLLPQDITPRMMCVGFLSGGVDSCQGDSGGPLSSVEADGRIFQAGVVSWGDGCAQRNRPGVYTRLPLFRDWIKENTGV ... 10%
